System: L. donovani (MHOM-ET-67/L82, axenically grown amastigotes)
Assay: in vitro activity on L. donovani, serial dilution assay
Format: cell-based, Leishmania donovani
Conditions: Leishmania donovani, 72 h, axenic amastigotes; 72 h exposure; means of two independent assays ± deviation from the mean; read-out: IC50 L. donovani
reported metric: pIC50
Reminder that pIC50 means the negative base-10 logarithm of the concentration expressed in mol/L.

"COc1cc([C@@H]2OC[C@@H]3[C@H]2CO[C@H]3c2cc(OC)c(O)c(OC)c2)cc(OC)c1O" yielded pIC50 of 4.87

Value of measured pIC50 for the entry "CN[C@H](C)C(=O)N[C@H](C(=O)N1CC[C@@H]2Oc3ccc(OC)c(c3)/C=C\NC(=O)[C@H](Cc3ccccc3)NC(=O)[C@H]21)C(C)C" : 4.35

Record "CC(C)=CCC1=C(O)C(=O)c2c(O)ccc(O)c2C1=O" . Reported pIC50: 5.72

###

Can you tell me IC50 for the items I'm about to list?
Tested on: T. cruzi (Tulahuen C2C4, intracellular amastigotes)
Test: in vitro activity on T. cruzi, serial dilution assay
Format: cell-based, Trypanosoma cruzi
Details: Trypanosoma cruzi, TULAHUEN, 96 h, read-out: IC50 T. cruzi

Reported IC50 of COC1=CC(=O)C=C(OC)C1=O [Compound 23] : > 50 µM

So, CCCCCCCCCCCCCCCC(=O)OCC(O)COP(=O)([O-])OCC[N+](C)(C)C (stereo not shown) [Compound 3, 1-palmitoyl-lysolecithin] ? Its IC50 was 12.1 µM

Measured IC50, C=C(C)[C@@H]1CC[C@]2(C(=O)O)CC[C@]3(C)[C@H](CC[C@@H]4[C@@]5(C)[C@H](C=O)[C@@H](O)C(C)(C)[C@@H]5CC[C@]43C)[C@@H]12 [Compound 14, colubrinic acid] : > 50 µM

The measured IC50 associated with C=C(C)[C@@H]1CC[C@]2(C(=O)O)CC[C@]3(C(=O)O)[C@H](CC[C@@H]4[C@@]5(C)C=CC(C)(C)[C@@H]5CC[C@]43C)[C@@H]12 [Compound 17, ceanothenic acid] reads > 50 µM

###

For each entry below, report its Selectivity index (SI) T. b. rhodesiense value.
System: T. b. rhodesiense (STIB900, trypomastigotes)
Assay: in vitro activity on T. b. rhodesiense, serial dilution assay
Type: cell-based, Trypanosoma brucei rhodesiense
Settings: SI = IC50 cytotoxicity (L6)/IC50 in T. b. rhodesiense
A bare number is all that is needed in reply.

The reported Selectivity index (SI) T. b. rhodesiense of the compound CC(C)C[C@@H]1NC(=O)[C@@H](NC(=O)[C@H](Cc2c[nH]c3ccccc23)N(C)C)[C@H](C(C)C)Oc2ccc(cc2)/C=C\NC1=O [Compound 9, nummularine K] was 2.7

Entry CC1(C)C=CC2=C(O1)C(=O)c1c(O)ccc(O[C@@H]3O[C@H](CO)[C@@H](O)[C@H](O)[C@H]3O)c1C2=O [Compound 29] ; Selectivity index (SI) T. b. rhodesiense = 3.2

Lookup result for CC(C)=CC[C@@]12O[C@@H]1C(=O)c1c(O)ccc(O[C@@H]3O[C@H](CO)[C@@H](O)[C@H](O)[C@H]3O)c1C2=O [Compound 26] ; measured Selectivity index (SI) T. b. rhodesiense: 1.2

For record CC(C)=CCC1=C(O)C(=O)c2c(O)ccc(O)c2C1=O [Compound 20] the listed Selectivity index (SI) T. b. rhodesiense is 2.0

Sure, the documented Selectivity index (SI) T. b. rhodesiense for C=C(C)[C@H](O)CC1=C(O)C(=O)c2c(O)ccc(O)c2C1=O [Compound 22] is 0.8

Selectivity index (SI) T. b. rhodesiense reading for C=C(C)[C@@H]1CC[C@]2(C(=O)O)CC[C@]3(C)[C@H](CC[C@@H]4[C@@]5(C)C[C@@H](O)[C@H](OC(=O)/C=C/c6ccc(O)cc6)C(C)(C)[C@@H]5CC[C@]43C)[C@@H]12 [Compound 18, 3-O-trans-p-coumaroylalphitolic acid] : 0.6

Looking up COc1cc([C@@H]2OC[C@@H]3[C@H]2CO[C@H]3c2cc(OC)c(O)c(OC)c2)cc(OC)c1O [Compound 30] , I see its Selectivity index (SI) T. b. rhodesiense listed as 0.6

Entry CCC(C)[C@@H]1NC(=O)[C@@H]2[C@H](CCN2C(=O)[C@H](Cc2c[nH]c3ccccc23)NC(=O)[C@H](CC(C)C)NC)Oc2ccc(OC)c(c2)/C=C\NC1=O (stereo partly drawn) [Compound 12, mauritine M] — recorded Selectivity index (SI) T. b. rhodesiense = 5.0

src = paper PMC10326435
